- Test system: Hela cell line
- Method notes: Cytotoxicity MTS assay, Hela cell line;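 note: blank control wells received 0.025% DMSO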
- Format: cell-based
- Assay context: Hela cell line, MTS, 50μM, second assay
Readout type: OD490 value, Mean
Please reply with the number alone, leaving off any unit.

Guide cases for OD490 value, Mean, answers given:
CCOC(=O)c1c(C2NC(=O)NC(C)=C2C(=O)Nc2ccccc2)[nH]c(C(=O)OC)c1C (centres unmarked) :: 1.7649
CCOC(=O)c1c(C2NC(=O)NC(C)=C2C(=O)Nc2ccccc2OC)[nH]c(C(=O)OC)c1C (centres unmarked) [D1] :: 2.0574
CCOC(=O)c1[nH]c(C2NC(=S)NC(C)=C2C(=O)OC)c(C(=O)OCC)c1C (centres unmarked) :: 2.5474

For the molecule CCOC(=O)c1[nH]c(C2NC(=O)NC(C)=C2C(=O)Nc2ccccc2OC)c(C(=O)OC)c1C (centres unmarked) , what OD490 value, Mean is on record?
2.2189

For the molecule CCOc1ccccc1C1NC(=S)NC(C)=C1C(=O)Nc1ccc(Cl)cc1 (centres unmarked) , what OD490 value, Mean is on record?
1.6346

###

Parameter OD490 value, Well 3: see the listing below.
- Tested on: Hela cell line
- Method notes: Cytotoxicity MTS assay, Hela cell line;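 note: blank control wells received 0.025% DMSO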
- Assay type: cell-based
- Assay context: Hela cell line, MTS, 0.5μM, first assay

For the molecule CCOc1ccccc1C1NC(=S)NC(C)=C1C(=O)Nc1ccc(Cl)cc1 (centres unmarked) , what OD490 value, Well 3 is on record?
2.4773

For the molecule CCOC(=O)c1[nH]c(C2NC(=O)NC(C)=C2C(=O)Nc2ccccc2C)c(C(=O)OC)c1C (centres unmarked) , what OD490 value, Well 3 is on record?
2.6902

For the molecule CCOC(=O)c1c(C2NC(=O)NC(C)=C2C(=O)Nc2ccccc2OC)[nH]c(C(=O)OC)c1C (centres unmarked) [D1] , what OD490 value, Well 3 is on record?
2.6155

For the molecule CCOC(=O)c1[nH]c(C2NC(=O)NC(C)=C2C(=O)Nc2ccc(Cl)cc2)c(C(=O)OCC)c1C (centres unmarked) , what OD490 value, Well 3 is on record?
2.5711

For the molecule CCOC(=O)c1[nH]c(C2NC(=O)NC(C)=C2C(=O)Nc2ccccc2OC)c(C(=O)OC)c1C (centres unmarked) , what OD490 value, Well 3 is on record?
2.7743

###

Parameter OD490 Well 1: see the listing below.
- Tested on: Caco-2 cell line
- Method notes: Cytotoxicity MTS assay, Caco-2 cell line
- Type: cell-based
- Assay context: 0.5μM; second assay; Caco-2 cell line
- Procedure: The positive compounds (IC50 < 100 μM) obtained from the primary Eg5 motor protein ATPase assay were tested for antiproliferative activity in vitro against Caco-2 cell line, Hela cell line, L929 cell line and T24 cell line by performing MTS assay. Cells were introduced into 96-well plates at a density of 1000 cells per well. After 24 h incubation, the cells were exposed with compounds at final concentrations ranging from 0.5 to 100 µM for 24 h. […]
Please reply with the number alone, leaving off any unit.

CCOC(=O)c1c(C2NC(=O)NC(C)=C2C(=O)Nc2ccccc2)[nH]c(C(=O)OC)c1C (stereo not shown) :: 0.531

For the compound CCOC(=O)c1[nH]c(C2NC(=O)NC(C)=C2C(=O)Nc2ccccc2C)c(C(=O)OC)c1C (stereo not shown) , what OD490 Well 1 is on record?
0.5407

###

- Test system: Caco-2 cell line
- Method notes: Cytotoxicity MTS assay, Caco-2 cell line
- Format: cell-based
- Assay context: 0.5μM; first assay; Caco-2 cell line
Rule: TRUE for OD490 Well 1 not less than 0.6, FALSE for anything less.

CCOc1ccccc1C1NC(=S)NC(C)=C1C(=O)Nc1ccc(Cl)cc1 (stereo not shown) [C9] :: TRUE

In the following, a different compound is considered.
API: above_or_equal(metric=OD490 Well 1, cutoff=0.6) for item CCOC(=O)c1c(C2NC(=O)NC(C)=C2C(=O)Nc2ccccc2)[nH]c(C(=O)OC)c1C (stereo not shown) [D10]
FALSE

###

Parameter OD490 value, Well 3: see the listing below.
- Tested on: Hela cell line
- Method notes: Cytotoxicity MTS assay, Hela cell line;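 note: blank control wells received 0.025% DMSO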
- Format: cell-based
- Assay context: Hela cell line, MTS, 25μM, third assay
- Experimental: The positive compounds (IC50 < 100 μM) obtained from the primary Eg5 motor protein ATPase assay were tested for antiproliferative activity in vitro against Caco-2 cell line, Hela cell line, L929 cell line and T24 cell line by performing MTS assay. Cells were introduced into 96-well plates at a density of 1000 cells per well. After 24 h incubation, the cells were exposed with compounds at final concentrations ranging from 0.5 to 100 µM for 24 h. […]
Please reply with the number alone, leaving off any unit.

For the compound CCOC(=O)c1c(C2NC(=O)NC(C)=C2C(=O)Nc2ccccc2OC)[nH]c(C(=O)OC)c1C (centres unmarked) [D1] , what OD490 value, Well 3 is on record?
2.0145

For the compound CCOC(=O)c1c(C2NC(=O)NC(C)=C2C(=O)Nc2ccccc2C)[nH]c(C(=O)OC)c1C (centres unmarked) [D2] , what OD490 value, Well 3 is on record?
2.5894

For the compound CCOC(=O)c1[nH]c(C2NC(=S)NC(C)=C2C(=O)OC)c(C(=O)OCC)c1C (centres unmarked) , what OD490 value, Well 3 is on record?
2.6896

For the compound CCOC(=O)c1[nH]c(C2NC(=O)NC(C)=C2C(=O)Nc2ccccc2OC)c(C(=O)OC)c1C (centres unmarked) , what OD490 value, Well 3 is on record?
2.2245

For the compound CCOc1ccccc1C1NC(=S)NC(C)=C1C(=O)Nc1ccc(Cl)cc1 (centres unmarked) , what OD490 value, Well 3 is on record?
1.9965

###

- Test system: Hela cell line
- Method notes: Cytotoxicity MTS assay, Hela cell line;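 note: blank control wells received 0.025% DMSO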
- Format: cell-based
- Assay context: Hela cell line, MTS, 50μM, third assay
Readout type: OD490 value, Mean

Guide cases for OD490 value, Mean, answers given:
CCOC(=O)c1c(C2NC(=O)NC(C)=C2C(=O)Nc2ccccc2OC)[nH]c(C(=O)OC)c1C (stereo not shown) [D1] :: 2.0424
CCOC(=O)c1c(C2NC(=O)NC(C)=C2C(=O)Nc2ccccc2)[nH]c(C(=O)OC)c1C (stereo not shown) [D10] :: 1.8099
CCOC(=O)c1[nH]c(C2NC(=O)NC(C)=C2C(=O)Nc2ccc(Cl)cc2)c(C(=O)OCC)c1C (stereo not shown) [D7] :: 2.4441

Please turn your attention to the following entry.
For the compound CCOC(=O)c1c(C2NC(=O)NC(C)=C2C(=O)Nc2ccccc2C)[nH]c(C(=O)OC)c1C (stereo not shown) [D2] , what OD490 value, Mean is on record?
2.6330

###

- System: T24 cell line
- Method notes: Cytotoxicity MTS assay, T24 cell line;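 note: blank control wells received 0.025% DMSO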
- Type: cell-based
- Assay context: T24 cell line, 25μM, second assay
Parameter OD490 Well 1: see the listing below.
Please reply with the number alone, leaving off any unit.

Guide cases for OD490 Well 1, answers given:
CCOC(=O)c1c(C2NC(=O)NC(C)=C2C(=O)Nc2ccccc2OC)[nH]c(C(=O)OC)c1C (centres unmarked) [D1] :: 1.6685
CCOC(=O)C1=C(C)NC(=S)NC1c1cccc(O)c1 (centres unmarked) [Monastrol, monastrol, reference compound] :: 1.7416
CCOc1ccccc1C1NC(=S)NC(C)=C1C(=O)Nc1ccc(Cl)cc1 (centres unmarked) :: 1.5784
CCOC(=O)c1[nH]c(C2NC(=O)NC(C)=C2C(=O)Nc2ccccc2C)c(C(=O)OC)c1C (centres unmarked) :: 1.5660

For the molecule CCOC(=O)c1c(C2NC(=O)NC(C)=C2C(=O)Nc2ccccc2C)[nH]c(C(=O)OC)c1C (centres unmarked) [D2] , what OD490 Well 1 is on record?
1.7747

###

- Test system: Caco-2 cell line
- Method notes: Cytotoxicity MTS assay, Caco-2 cell line
- Format: cell-based
- Assay context: 0.5μM; first assay; Caco-2 cell line
Rule: Condition met for OD490 Mean not less than 0.6, Condition not met for anything less.

Reference set (5 entries):
CCOC(=O)c1[nH]c(C2NC(=S)NC(C)=C2C(=O)OC)c(C(=O)OCC)c1C (stereo not shown) :: Condition not met
CCOC(=O)C1=C(C)NC(=S)NC1c1cccc(O)c1 (stereo not shown) [Monastrol, monastrol, reference compound] :: Condition met
CCOC(=O)c1[nH]c(C2NC(=O)NC(C)=C2C(=O)Nc2ccccc2OC)c(C(=O)OC)c1C (stereo not shown) :: Condition met
CCOC(=O)c1c(C2NC(=O)NC(C)=C2C(=O)Nc2ccccc2)[nH]c(C(=O)OC)c1C (stereo not shown) :: Condition not met
CCOc1ccccc1C1NC(=S)NC(C)=C1C(=O)Nc1ccc(Cl)cc1 (stereo not shown) :: Condition met

API: above_or_equal(metric=OD490 Mean, cutoff=0.6) for item CCOC(=O)c1c(C2NC(=O)NC(C)=C2C(=O)Nc2ccccc2C)[nH]c(C(=O)OC)c1C (stereo not shown) [D2]
Condition met

API: above_or_equal(metric=OD490 Mean, cutoff=0.6) for item CCOC(=O)c1[nH]c(C2NC(=O)NC(C)=C2C(=O)Nc2ccccc2C)c(C(=O)OC)c1C (stereo not shown)
Condition not met

API: above_or_equal(metric=OD490 Mean, cutoff=0.6) for item CCOC(=O)c1[nH]c(C2NC(=O)NC(C)=C2C(=O)Nc2ccc(Cl)cc2)c(C(=O)OCC)c1C (stereo not shown)
Condition not met
